Form field: IC50 (one value per entry).
biological target: AuroraA-TPX2 (Homo sapiens, UniProt O14965); construct: 20 μL of AuroraA-TPX2 KD GST for a final volume of about 41 μL; GST; assay: AuroraA-TPX2 Homogeneous Time Resolved Fluorescent (HTRF) kinase assay; assay type: biochemical; conditions: average; ATP about 1 μM; read-out: AurA _IC50_ IP (uM Avg)
Sequence (O14965 133-383 limits assumed): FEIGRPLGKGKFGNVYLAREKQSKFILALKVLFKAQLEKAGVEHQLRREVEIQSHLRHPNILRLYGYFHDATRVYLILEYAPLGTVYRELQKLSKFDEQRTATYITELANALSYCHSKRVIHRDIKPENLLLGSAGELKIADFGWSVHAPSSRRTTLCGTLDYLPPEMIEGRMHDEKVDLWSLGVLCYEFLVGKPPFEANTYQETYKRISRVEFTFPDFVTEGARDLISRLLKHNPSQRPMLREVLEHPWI
Sequence (Q9ULW0 1-43 partner limits assumed): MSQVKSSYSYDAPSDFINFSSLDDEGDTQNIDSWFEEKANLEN

// known answers, use as guide
COc1ccc2c(Oc3ccc(NC(=O)c4ccccc4Nc4ccccc4)cc3F)ccnc2c1
< 0.1 µM
CNC(=O)c1cc(Oc2ccc(NC(=O)c3ccccc3Nc3ccccc3)cc2)ccn1
1 to 5 µM
Nc1nccc(Oc2ccc(NC(=O)c3ccccc3Nc3ccc(F)cc3)cc2)n1
0.1 to 0.5 µM

Please turn your attention to the following entry.
For this compound ( `COc1cc2nccc(Oc3ccc(NC(=O)c4ccccc4Nc4ccccc4)cc3F)c2cc1OC` ), measured IC50 is < 0.1 µM
